Measurement Target: P-gp (Homo sapiens)
Construct: host or cells: Caco-2 (C2BBe1)
Sequence (P08183 whole entry): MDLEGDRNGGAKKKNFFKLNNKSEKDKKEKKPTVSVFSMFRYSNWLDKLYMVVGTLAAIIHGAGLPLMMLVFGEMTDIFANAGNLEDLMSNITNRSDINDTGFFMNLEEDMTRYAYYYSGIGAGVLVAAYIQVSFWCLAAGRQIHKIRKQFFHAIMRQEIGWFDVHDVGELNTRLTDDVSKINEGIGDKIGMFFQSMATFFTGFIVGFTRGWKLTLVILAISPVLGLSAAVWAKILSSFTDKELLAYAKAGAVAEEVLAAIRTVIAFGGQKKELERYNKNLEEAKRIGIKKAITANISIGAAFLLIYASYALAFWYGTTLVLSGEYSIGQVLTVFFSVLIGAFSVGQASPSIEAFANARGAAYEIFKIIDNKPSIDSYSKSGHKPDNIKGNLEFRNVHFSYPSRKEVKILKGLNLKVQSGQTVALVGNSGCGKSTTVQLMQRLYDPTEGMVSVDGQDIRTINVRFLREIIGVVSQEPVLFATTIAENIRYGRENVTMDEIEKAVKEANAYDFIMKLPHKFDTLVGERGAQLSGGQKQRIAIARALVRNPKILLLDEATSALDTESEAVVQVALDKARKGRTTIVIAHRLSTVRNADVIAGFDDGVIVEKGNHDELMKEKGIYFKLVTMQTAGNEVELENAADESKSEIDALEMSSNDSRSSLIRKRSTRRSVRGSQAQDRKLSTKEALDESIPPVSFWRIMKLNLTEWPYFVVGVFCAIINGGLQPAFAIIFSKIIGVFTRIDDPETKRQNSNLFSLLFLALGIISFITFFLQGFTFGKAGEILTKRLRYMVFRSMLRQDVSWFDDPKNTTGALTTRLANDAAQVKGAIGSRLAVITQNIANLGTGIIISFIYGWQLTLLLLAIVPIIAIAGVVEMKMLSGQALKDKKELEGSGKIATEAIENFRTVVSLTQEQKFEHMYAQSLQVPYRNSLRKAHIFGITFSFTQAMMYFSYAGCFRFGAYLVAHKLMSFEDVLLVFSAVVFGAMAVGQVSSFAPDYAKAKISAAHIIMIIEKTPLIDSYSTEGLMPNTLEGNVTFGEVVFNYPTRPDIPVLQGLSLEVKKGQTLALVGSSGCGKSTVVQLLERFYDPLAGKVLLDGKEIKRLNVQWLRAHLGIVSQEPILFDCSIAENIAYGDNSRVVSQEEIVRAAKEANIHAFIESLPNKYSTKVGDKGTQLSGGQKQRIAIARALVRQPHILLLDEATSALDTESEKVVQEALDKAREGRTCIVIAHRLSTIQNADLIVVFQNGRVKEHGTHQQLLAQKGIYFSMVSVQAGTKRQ
Assay Remarks: Evaluation of P-gp efflux in Caco-2 cell monolayers;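 note: Caco-2 monolayers dosed apically or basolaterally with test compound at 5 µM in HBSS with HEPES and glucose, 37 °C, donor and receiver sampled after 120 min, LC/MS peak areas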
Type: in vitro ADME
Condition Details: pH 7.4, Caco-2, Verapamil 0 μM
Where a name gives a salt, the structure may show the parent alone.
Label scheme for Papp A→B at 120 min, 5 μM: lower than 0.6 ×10⁻⁶ cm/s is F, 0.6 ×10⁻⁶ cm/s and above is T.

As a guide, the following entries are already answered.
C#Cc1cccc(Nc2ncnc3cc(OCCOC)c(OCCOC)cc23)c1 [Erlotinib•HCl]; T
C[C@H]1O[C@@H](O[C@H]2[C@@H](O)C[C@H](O[C@H]3[C@@H](O)C[C@H](O[C@H]4CC[C@@]5(C)[C@H](CC[C@@H]6[C@@H]5C[C@@H](O)[C@]5(C)[C@@H](C7=CC(=O)OC7)CC[C@]65O)C4)O[C@@H]3C)O[C@@H]2C)C[C@H](O)[C@@H]1O; T
CC(C)NCC(O)COc1cccc2ccccc12 (centres unmarked); T
Fc1c(Nc2ncnc3cc(OCCOC(F)F)c(OCCOC(F)F)cc23)ccc(Cl)c1Cl [Compound 2A•HCl]; F

Input line: Has Fc1ccc(Nc2ncnc3cc(OCCOC(F)F)c(OCCOC(F)F)cc23)c(F)c1Cl [Compound 2D•HCl] a recorded Papp A→B at 120 min, 5 μM greater than or equal to 0.6 ×10⁻⁶ cm/s?
Output line: T
